- System: Plasmodium falciparum
- PROCEDURE_SUMMARY: Antimalarial activity against chloroquine-resistant Plasmodium falciparum W2 assessed as plasmodial LDH activity
- Type: functional, organism-based
MEASURED_METRIC: IC50

{"MOLECULE": "COc1cc(NC(C)CCCNC(=O)CC[C@H](NC(=O)[C@@H](N)CCCCN)C(=O)O)c2ncccc2c1 (stereo not given in full)", "MEASURED_METRIC": "IC50", "VAL": "Not Active"}
{"MOLECULE": "COc1cc(NC(C)CCCNC(=O)[C@H](CCCN)NC(=O)[C@@H](N)CCCN)c2ncccc2c1 (stereo not given in full)", "MEASURED_METRIC": "IC50", "VAL": "Not Active"}
{"MOLECULE": "COc1cc(NC(C)CCCNC(=O)NCCC[C@@H](N)C(=O)O)c2ncccc2c1 (stereo not given in full)", "MEASURED_METRIC": "IC50", "VAL": "Not Active"}
{"MOLECULE": "COc1cc(NC(C)CCCNC(=O)CC[C@H](NC(=O)[C@@H](N)CCCCN)C(=O)O)c2nc(C(C)(C)C)ccc2c1 (stereo not given in full)", "MEASURED_METRIC": "IC50", "VAL": "Not Active"}

I would be grateful if you could provide IC50 for each of the following entries.
1. COc1cc(NC(C)CCCNC(=O)NCCCC[C@H](N)C(=O)O)c2ncccc2c1 (stereo not given in full)
2. COc1cc(NC(C)CCCNC(=O)CC[C@@H](NC(=O)[C@H](N)CCCN)C(=O)O)c2ncccc2c1 (stereo not given in full)
3. COc1cc(NC(C)CCCNC(=O)C[C@@H](NC(=O)[C@H](N)CCCCN)C(=O)O)c2nc(C(C)(C)C)ccc2c1 (stereo not given in full)
4. COc1cc(NC(C)CCCNC(=O)CC[C@@H](NC(=O)[C@H](N)CCCCN)C(=O)O)c2ncccc2c1 (stereo not given in full)
5. COc1cc(NC(C)CCCNC(=O)NCCCC[C@H](N)C(=O)O)c2nc(C(C)(C)C)ccc2c1 (stereo not given in full)
6. COc1cc(NC(C)CCCNC(=O)CC[C@@H](NC(=O)[C@H](N)CCCCN)C(=O)O)c2nc(C(C)(C)C)ccc2c1 (stereo not given in full)

Not Active
Not Active
Not Active
Not Active
Not Active
Not Active
